// reported recovery at 2 h, 10 µM for each item listed
- assayInfo: Apparent permeability across basal to apical side in MDCK-II cells assessed as compound recovery at 10 uM measured for 120 mins by LC-MS/MS analysis
- Format: ADME, cell-based, Canis lupus familiaris
- conditionParameters: dog, read-out: Drug recovery
Respond with the bare value in %.

>>> reportedvalue("Nc1ncnc2c1c(-c1ccc(Oc3ccccc3)cc1)nn2[C@@H]1CCCN(C(=O)c2ccc(CNc3ccc4c(c3)C(=O)N(C3CCC(=O)NC3=O)C4=O)cc2)C1 (stereo not given in full)")
116
>>> reportedvalue("CC(C)NCC(O)COc1ccc(CC(N)=O)cc1 (stereo not given)")
99.5
>>> reportedvalue("Nc1ncnc2c1c(-c1ccc(Oc3ccccc3)cc1)nn2C1CCN(C(=O)Cc2ccc(Nc3ccc4c(c3)CN(C3CCC(=O)NC3=O)C4=O)cc2)CC1 (stereo not given)")
101
>>> reportedvalue("COCCc1ccc(OCC(O)CNC(C)C)cc1 (stereo not given)")
95.9

[in] Fill in: recovery at 2 h, 10 µM of Nc1ncnc2c1c(-c1ccc(Oc3ccccc3)cc1)nn2[C@@H]1CCCN(C(=O)Cc2ccc(Nc3ccc4c(c3)CN(C3CCC(=O)NC3=O)C4=O)cc2)C1 (stereo not given in full) is ___
[out] 101
